system: MAO-A; assay: Metabolic stability in human liver mitochondrial fraction; assay type: in vitro ADME; conditions: both, liver mitochondrial fractions, with clorgyline 100 nM
QUANTITY_MEASURED: microsomal CLint at 3.1 µM

Enquiry: In one line, give reported microsomal CLint at 3.1 µM of the entry "CN(C)CCc1c[nH]c2ccccc12" .
Return: < 3.9 µL/min/mg

----------
type: in vivo, human; details: human, plasma, iv, Mean elimination half-life (plasma), all doses, 9–21.5 mg IV 10-min infusion
QUANTITY_MEASURED: half-life

Enquiry: Provide only the value of recorded half-life for "CN(C)CCc1c[nH]c2ccccc12"
Return: 10 to 12 min

----------
experiment: physchem; assay type: physicochemical; conditions: pH 7.4
QUANTITY_MEASURED: logD
No unit in the answer, please; the number alone is enough.

Enquiry: Could you please provide reported logD for CN(C)CCc1c[nH]c2ccccc12 [DMT, N,N-dimethyltryptamine] ? Thanks!
Return: 0.15

----------
assay type: in vivo, human; conditions: human, plasma, intravenous, 6 mg, Individual C5min, following a 6 mg dose over 5 min, across all dose cohorts
QUANTITY_MEASURED: concentration at 5 min

Enquiry: Given CN(C)CCc1c[nH]c2ccccc12 [DMT, N,N-dimethyltryptamine] , respond with its concentration at 5 min.
Return: 0.00332 to 0.043 µg/mL

----------
test: Blood:plasma ratio; format: in vitro ADME; conditions: human, fresh whole blood and plasma
QUANTITY_MEASURED: blood plasma ratio at 30 min, 1 µM
Give the figure only, with no unit attached.

Enquiry: Note down blood plasma ratio at 30 min, 1 µM recorded for CN(C)CCc1c[nH]c2ccccc12 [DMT, N,N-dimethyltryptamine]
Return: 1.53
